Entries annotated with measured activity, negative = inhibition
assay: Stat Signaling Pathway (AID 446); details: ME-180 (cervical carcinoma) SIE beta-lactamase reporter, IL-6 stimulated, 5 h; at 7.69 µM (top of the series) unless noted;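 also: ME-180 cervical cancer cells given 40 pM IL-6 alongside compound; SIE-controlled beta-lactamase reporter measured as 460/530 nm FRET emission ratio; % is scaled to controls: 0 for no effect and ±100 for the full control effect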
Results filed as inconclusive are left out.
Report as a plain number; the unit % is understood.

# smiles code, activity, negative = inhibition [%]
data = [
    ("Cc1cccc(CNc2ncncc2-c2cccc(NS(C)(=O)=O)c2)c1", 0.163),
]

Give activity, negative = inhibition for CS(=O)(=O)Nc1cccc(-c2nc(N3CCOCC3)c3ccccc3n2)c1
-10.3

----------
test: NFAT Signaling Pathway (AID 444); settings: Jurkat NFAT-bla M1, carbachol, beta-lactamase ratio, 5 h; at 7.69 µM (top of the series) unless noted;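 also: carbachol stimulus at about its EC50 of 1 µM final; % is scaled to controls: 0 for no effect and ±100 for the full control effect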
Inconclusive results are not listed.
observation type: activity change, negative = inhibition (%)
Provide only the numeric value, understood in %.

Example entries and their recorded answers appear below.
# smiles code, activity change, negative = inhibition (%)
measured = [
    ("COc1ccc2[nH]cc(CCNc3ccnc(-c4cccc(C#N)c4)n3)c2c1", 23.2),
    ("CC(C)NC(=O)N1CC2(CCN(C(=O)c3cccn3C)CC2)C1", -17.2),
    ("COc1ccc(C(=O)N2CCC3(CC2)CN(c2ccc(-c4ccccc4)cc2)C3)cc1", -9.07),
    ("O=C(c1ccco1)N1CCC2(CC1)CCN(c1ccc(-c3ccccc3)cc1)CC2", 17.6),
]

Identify activity change, negative = inhibition associated with the molecule Cc1cnc(CNc2nc(-c3ccccc3C)nc3ccccc23)cn1
-6.95
